Reference source for all entries: paper PMC9656205

Test: Pharmacokinetics in plasma and A375 tumour tissue after single oral administration
Assay type: in vivo, CD-1 nude mice
Conditions: female, Crl:CD-1-Foxn1nu (CD-1 nude), mouse, A375 tumour tissue homogenate, HDM201 100 mg/kg single oral, with Trametinib 1 mg/kg, A375 tumour, n = 3
Quantity Measured: Cmax

>>> df
                               query_smiles  quantity_measured  measured
0  COc1ncc(-c2nc3c(n2C(C)C)[C@H](c2ccc(Cl)cc2)N(c2cc(Cl)cn(C)c2=O)C3=O)c(OC)n1               Cmax   28.6 µM

---

Test: Pharmacokinetics in plasma and A375 tumour tissue after single oral administration
Format: in vivo, CD-1 nude mice
Details: female, Crl:CD-1-Foxn1nu (CD-1 nude), mouse, plasma, HDM201 100 mg/kg single oral, with Trametinib 1 mg/kg, plasma, n = 3, read-out: Tmax ± SD
Quantity Measured: Tmax (h)

>>> df
                               query_smiles  quantity_measured  measured
0  COc1ncc(-c2nc3c(n2C(C)C)[C@H](c2ccc(Cl)cc2)N(c2cc(Cl)cn(C)c2=O)C3=O)c(OC)n1               Tmax       1.5

---

Experiment: Pharmacokinetics in plasma and A375 tumour tissue after single oral administration
Type: in vivo, CD-1 nude mice
Conditions: female, Crl:CD-1-Foxn1nu (CD-1 nude), mouse, A375 tumour tissue homogenate, HDM201 100 mg/kg single oral, with Trametinib 1 mg/kg, A375 tumour, n = 3, read-out: AUC0–24h ± SD
Quantity Measured: AUC(0-t) (µM·h)

>>> print(df.to_string())
                               query_smiles  measured
0  COc1ncc(-c2nc3c(n2C(C)C)[C@H](c2ccc(Cl)cc2)N(c2cc(Cl)cn(C)c2=O)C3=O)c(OC)n1       219

---

Experiment: Pharmacokinetics in plasma and A375 tumour tissue after single oral administration
Type: in vivo, CD-1 nude mice
Conditions: female, Crl:CD-1-Foxn1nu (CD-1 nude), mouse, plasma, range stated jointly for HDM201 and Trametinib, oral, mice, sparse sampling, read-out: typical Tmax
Quantity Measured: Tmax

>>> df
                               query_smiles    measured
0  COc1ncc(-c2nc3c(n2C(C)C)[C@H](c2ccc(Cl)cc2)N(c2cc(Cl)cn(C)c2=O)C3=O)c(OC)n1  1.5 to 4 h
1  CC(=O)Nc1cccc(-n2c(=O)n(C3CC3)c(=O)c3c(Nc4ccc(I)cc4F)n(C)c(=O)c(C)c32)c1  1.5 to 4 h

---

Test: Pharmacokinetics in plasma and A375 tumour tissue after single oral administration
Format: in vivo, CD-1 nude mice
Conditions: female, Crl:CD-1-Foxn1nu (CD-1 nude), mouse, plasma, 100 mg/kg, HDM201 100 mg/kg single oral, without Trametinib, plasma, n = 3, read-out: AUC0–24h ± SD
Quantity Measured: AUC(0-t) (µM·h)

>>> print(df.to_string())
                                   compound  measured
0  COc1ncc(-c2nc3c(n2C(C)C)[C@H](c2ccc(Cl)cc2)N(c2cc(Cl)cn(C)c2=O)C3=O)c(OC)n1 [Siremadlin (HDM201), Siremadlin]      95.1

---

Experiment: Pharmacokinetics in plasma and A375 tumour tissue after single oral administration
Format: in vivo, CD-1 nude mice
Conditions: female, Crl:CD-1-Foxn1nu (CD-1 nude), mouse, plasma, 1 mg/kg, Trametinib 1 mg/kg single oral, without HDM201, plasma, n = 3, read-out: Tmax ± SD
Quantity Measured: Tmax

>>> print(df.to_string())
                                   molecule  measured
0  CC(=O)Nc1cccc(-n2c(=O)n(C3CC3)c(=O)c3c(Nc4ccc(I)cc4F)n(C)c(=O)c(C)c32)c1 [Trametinib]       4 h

---

Test: Pharmacokinetics in plasma and A375 tumour tissue after single oral administration
Assay type: in vivo, CD-1 nude mice
Conditions: female, Crl:CD-1-Foxn1nu (CD-1 nude), mouse, plasma, 1 mg/kg, Trametinib 1 mg/kg single oral, without HDM201, plasma, n = 3
Quantity Measured: Cmax

In [3]: df
Out[3]:
                               query_smiles  quantity_measured  measured
0  CC(=O)Nc1cccc(-n2c(=O)n(C3CC3)c(=O)c3c(Nc4ccc(I)cc4F)n(C)c(=O)c(C)c32)c1               Cmax    567 nM

---

Experiment: Pharmacokinetics in plasma and A375 tumour tissue after single oral administration
Format: in vivo, CD-1 nude mice
Conditions: female, Crl:CD-1-Foxn1nu (CD-1 nude), mouse, A375 tumour tissue homogenate, 100 mg/kg, HDM201 100 mg/kg single oral, without Trametinib, A375 tumour, n = 3, read-out: Tmax ± SD
Quantity Measured: Tmax (h)

In [3]: df
Out[3]:
                                   molecule  unit_name  measured
0  COc1ncc(-c2nc3c(n2C(C)C)[C@H](c2ccc(Cl)cc2)N(c2cc(Cl)cn(C)c2=O)C3=O)c(OC)n1 [Siremadlin (HDM201), Siremadlin]          h       1.5

---

Test: Pharmacokinetics in plasma and A375 tumour tissue after single oral administration
Type: in vivo, CD-1 nude mice
Settings: female, Crl:CD-1-Foxn1nu (CD-1 nude), mouse, A375 tumour tissue homogenate, 100 mg/kg, HDM201 100 mg/kg single oral, without Trametinib, A375 tumour, n = 3
Quantity Measured: Cmax (µM)

>>> print(df.to_string())
                               query_smiles  unit_name  measured
0  COc1ncc(-c2nc3c(n2C(C)C)[C@H](c2ccc(Cl)cc2)N(c2cc(Cl)cn(C)c2=O)C3=O)c(OC)n1         µM      16.2

---

Experiment: Pharmacokinetics in plasma and A375 tumour tissue after single oral administration
Assay type: in vivo, CD-1 nude mice
Details: female, Crl:CD-1-Foxn1nu (CD-1 nude), mouse, plasma, HDM201 100 mg/kg single oral, with Trametinib 1 mg/kg, plasma, n = 3
Quantity Measured: Cmax (µM)

                               query_smiles  quantity_measured  measured
0  COc1ncc(-c2nc3c(n2C(C)C)[C@H](c2ccc(Cl)cc2)N(c2cc(Cl)cn(C)c2=O)C3=O)c(OC)n1               Cmax      14.6

---

Test: Pharmacokinetics in plasma and A375 tumour tissue after single oral administration
Format: in vivo, CD-1 nude mice
Details: female, Crl:CD-1-Foxn1nu (CD-1 nude), mouse, A375 tumour tissue homogenate, 1 mg/kg, Trametinib 1 mg/kg single oral, with HDM201 100 mg/kg, A375 tumour, n = 3, read-out: Tmax ± SD
Quantity Measured: Tmax (h)

                                   molecule  quantity_measured  measured
0  CC(=O)Nc1cccc(-n2c(=O)n(C3CC3)c(=O)c3c(Nc4ccc(I)cc4F)n(C)c(=O)c(C)c32)c1 [Trametinib]               Tmax         4

---

Test: Pharmacokinetics in plasma and A375 tumour tissue after single oral administration
Type: in vivo, CD-1 nude mice
Conditions: female, Crl:CD-1-Foxn1nu (CD-1 nude), mouse, plasma, 100 mg/kg, HDM201 100 mg/kg single oral, without Trametinib, plasma, n = 3
Quantity Measured: Cmax (µM)

In [3]: df
Out[3]:
                                   compound  quantity_measured  measured
0  COc1ncc(-c2nc3c(n2C(C)C)[C@H](c2ccc(Cl)cc2)N(c2cc(Cl)cn(C)c2=O)C3=O)c(OC)n1 [Siremadlin (HDM201), Siremadlin]               Cmax      9.78

---

Assay: Pharmacokinetics in plasma and A375 tumour tissue after single oral administration
Format: in vivo, CD-1 nude mice
Settings: female, Crl:CD-1-Foxn1nu (CD-1 nude), mouse, plasma, 1 mg/kg, Trametinib 1 mg/kg single oral, with HDM201 100 mg/kg, plasma, n = 3, read-out: AUC0–24h ± SD
Quantity Measured: AUC(0-t) (µM·h)

In [3]: df
Out[3]:
                                   molecule  quantity_measured  measured
0  CC(=O)Nc1cccc(-n2c(=O)n(C3CC3)c(=O)c3c(Nc4ccc(I)cc4F)n(C)c(=O)c(C)c32)c1 [Trametinib]           AUC(0-t)      4.48

---

Test: Pharmacokinetics in plasma and A375 tumour tissue after single oral administration
Format: in vivo, CD-1 nude mice
Conditions: female, Crl:CD-1-Foxn1nu (CD-1 nude), mouse, plasma, 1 mg/kg, Trametinib 1 mg/kg single oral, with HDM201 100 mg/kg, plasma, n = 3
Quantity Measured: Cmax (nM)

                                   compound  quantity_measured  unit_name  measured
0  CC(=O)Nc1cccc(-n2c(=O)n(C3CC3)c(=O)c3c(Nc4ccc(I)cc4F)n(C)c(=O)c(C)c32)c1 [Trametinib]               Cmax         nM       354
